- test.summary: Quantitative High-Throughput drug screen in 47 multiple myeloma cell lines against the NCATS MIPE library collection: KMS27_JCRB cell viability assay (AID 1918970); also: nearly all actives have a fitted effect of over 30% in size
- condition.description: KMS27 myeloma cells, CellTiter-Glo ATP viability, 48 h; series mostly up to 45.8 µM
Records with an inconclusive call do not appear. Calls of active or inactive are those of the source. Calls follow the shape of the dose curve; as a rule, active = well fitted cell-killing curve with a large enough effect; inconclusive = small, poorly fitted or top-dose-only effect, or effect the other way; inactive = no such curve, though single readings can be large or run the other way.
Please reply with one of these outcomes: true (1) (active), false (0) (inactive)

Worked set:
{"columns": ["molecule", "label.class"],
 "data": [
  ["O=c1[nH]c2ccccc2n1C1CCN(Cc2ccc(-c3[nH]c4cc5ncnc5cc4nc3-c3ccccc3)cc2)CC1", "true (1)"],
  ["CCOC(=O)c1cncn1[C@H](C)c1ccccc1", "false (0)"],
  ["CN1[C@H]2CC(O)C[C@H]1[C@H]1O[C@H]12 (some centres undefined)", "false (0)"]
]}

Hello, I am checking results. What call was entered for Cc1c(C(=O)Nc2cccc(C(F)(F)F)c2)cc(-c2ccccc2)n1CCCN1CCOCC1 ?
true (1)

For Cc1ccccc1-n1c(Cn2cnc3c(N)ncnc32)nc2cccc(C)c2c1=O , what call appears in the results of this test?
true (1)

Which result was noted for this molecule in the test: c1ccc(CCCN2CCN(CCOC(c3ccccc3)c3ccccc3)CC2)cc1
false (0)

For Cc1ccccc1-n1c(Cn2ncc3c(N)ncnc32)nc2cccc(C)c2c1=O , what call appears in the results of this test?
true (1)

What did this assay record as the result for CCc1c(C(=O)C(N)=O)c2c(OCC(=O)O)cccc2n1Cc1ccccc1 ?
false (0)

Would you mind telling me which call this test gave C[C@H]1CCCC=CC2C[C@H](O)C[C@@H]2[C@H](O)C=CC(=O)O1 (some centres undefined) ?
true (1)

Per the records of this test, what outcome belongs to COc1ccc2c(c1)CN(C)CC2c1ccc(Cl)c(Cl)c1 (centres undefined) ?
true (1)

Assay result, entry C[C@]12CC[C@H]3[C@@H](CCC4=CC(=O)CC[C@@]43C)[C@H]1CC[C@H]2OC(=O)CCC1CCCC1 — outcome?
false (0)

Outcome logged for CC(=CCCC1=CCC(C2=CC(=O)OC2O)OC1O)CCC1=C(C)CCCC1(C)C (centres undefined) in this assay:
false (0)

Record lookup: outcome of this test for C[C@@H]1CC[C@H]2[C@@H](C)C(=O)O[C@@H]3O[C@@]4(C)CC[C@H]1[C@]32OO4 ?
false (0)

Fill in: this test's call for CC(C)(O)C=CC(=O)[C@](C)(O)[C@H]1[C@H](O)C[C@]2(C)[C@@H]3CC=C4[C@@H](C=C(O)C(=O)C4(C)C)[C@]3(C)C(=O)C[C@@]12C is ___
true (1)
